So I've got Ki readings for CRBN (Homo sapiens, UniProt Q96SW2), take a look.
State just the number; it will be interpreted in nM.

Below are worked cases with known answers.
>>> reported_result("O=C1CCC(N2C(=O)c3cccc(OCCOCCOCCOCCNC(=O)[C@]4(Cc5cccc(Nc6nccs6)n5)CC[C@@H](Oc5cccc(Cl)c5F)CC4)c3C2=O)C(=O)N1 (stereo partly shown) [SK2188, reference compound]")
273
>>> reported_result("O=C1CCC(Nc2ccc(N3CCN(C4CN(C(=O)[C@]5(Cc6cccc(Nc7nccs7)n6)CC[C@@H](Oc6cccc(Cl)c6F)CC5)C4)CC3)c(F)c2)C(=O)N1 (stereo partly shown)")
1210
>>> reported_result("Cc1cc(Nc2ccc(F)c(CC3(C(=O)N4CCC(F)(CN5CCN(c6ccc(N7CCC(=O)NC7=O)cn6)CC5)CC4)CCN(Cc4cccc(Cl)c4F)CC3)n2)n[nH]1")
1130

Give the measured Ki of O=C1CCC(Nc2ccc(N3CCN(C4CN(C(=O)[C@]5(Cc6cccc(Nc7nccs7)n6)CC[C@@H](Oc6cccc(Cl)c6F)CC5)C4)CC3)nc2)C(=O)N1 (stereo partly shown) . 3180

---

Molecular target: AURKA (Homo sapiens)
Sequence (O14965 1-403): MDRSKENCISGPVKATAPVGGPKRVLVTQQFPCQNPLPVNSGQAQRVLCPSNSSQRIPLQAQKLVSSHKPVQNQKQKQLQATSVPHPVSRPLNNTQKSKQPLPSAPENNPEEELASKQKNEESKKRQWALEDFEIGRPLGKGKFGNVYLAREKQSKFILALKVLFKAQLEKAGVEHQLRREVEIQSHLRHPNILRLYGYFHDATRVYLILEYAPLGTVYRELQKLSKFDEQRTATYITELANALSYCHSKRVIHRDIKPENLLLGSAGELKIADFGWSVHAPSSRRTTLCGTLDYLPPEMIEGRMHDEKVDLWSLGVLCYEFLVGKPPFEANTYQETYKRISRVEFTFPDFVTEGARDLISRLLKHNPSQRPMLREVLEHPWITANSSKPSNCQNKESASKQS
Test: AURKA degradation, Simple Western;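 note: measured in NGP neuroblastoma cells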
Type: cell-based
Set-up: Representative Western blot showing levels of endogenous proteins MDR1, MYCN, AURKA, and CRBN in untreated cell lines; endogenous in cells; host or cells: NGP, IMR-32, SJNB-8, SK-N-BE(2)-C, SK-N-SH, SK-N-AS, SJNB-1, RPE, HEK293T
Details: 24h, 100nM
Entries and their AURKA Degradation 24h @100nM values follow.
Please reply with the number alone, leaving off any unit.

Some solved cases for reference:
>>> reported_result("O=C1CCC(Nc2ccc(N3CCN(C4CN(C(=O)[C@]5(Cc6cccc(Nc7nccs7)n6)CC[C@@H](Oc6cccc(Cl)c6F)CC5)C4)CC3)nc2)C(=O)N1 (stereo partly drawn)")
90
>>> reported_result("O=C1CCC(N2C(=O)c3ccc(N4CCN(C(=O)CNC(=O)[C@]5(Cc6cccc(Nc7nccs7)n6)CC[C@@H](Oc6cccc(Cl)c6F)CC5)CC4)cc3C2=O)C(=O)N1 (stereo partly drawn)")
76
>>> reported_result("O=C1CCN(c2ccc(N3CCN(CC4(F)CCN(C(=O)[C@]5(Cc6cccc(Nc7nccs7)n6)CC[C@@H](Oc6cccc(Cl)c6F)CC5)CC4)CC3)nc2)C(=O)N1")
88
>>> reported_result("Cc1cc(Nc2ccc(F)c(CC3(C(=O)N4CCC(F)(C(=O)N5CCC(c6ccc(N7CCC(=O)NC7=O)cn6)CC5)CC4)CCN(Cc4cccc(Cl)c4F)CC3)n2)n[nH]1")
82
>>> reported_result("O=C1CCC(N2C(=O)c3ccc(N4CCN(C(=O)COCCNC(=O)[C@]5(Cc6cccc(Nc7nccs7)n6)CC[C@@H](Oc6cccc(Cl)c6F)CC5)CC4)cc3C2=O)C(=O)N1 (stereo partly drawn)")
68

Here is the next item to consider.
Name the reported AURKA Degradation 24h @100nM value associated with the molecule O=C1CCN(c2ccc(N3CCN(C4CCN(C(=O)[C@]5(Cc6cccc(Nc7nccs7)n6)CC[C@@H](Oc6cccc(Cl)c6F)CC5)C4)CC3)nc2)C(=O)N1 (stereo partly drawn) 71
